The origin of these recorded values is the Kinase Knowledgebase extract (Sharma et al. 2016).

Biological target: EGFR (UniProt P00533)
Sequence (P00533 whole entry, looked up): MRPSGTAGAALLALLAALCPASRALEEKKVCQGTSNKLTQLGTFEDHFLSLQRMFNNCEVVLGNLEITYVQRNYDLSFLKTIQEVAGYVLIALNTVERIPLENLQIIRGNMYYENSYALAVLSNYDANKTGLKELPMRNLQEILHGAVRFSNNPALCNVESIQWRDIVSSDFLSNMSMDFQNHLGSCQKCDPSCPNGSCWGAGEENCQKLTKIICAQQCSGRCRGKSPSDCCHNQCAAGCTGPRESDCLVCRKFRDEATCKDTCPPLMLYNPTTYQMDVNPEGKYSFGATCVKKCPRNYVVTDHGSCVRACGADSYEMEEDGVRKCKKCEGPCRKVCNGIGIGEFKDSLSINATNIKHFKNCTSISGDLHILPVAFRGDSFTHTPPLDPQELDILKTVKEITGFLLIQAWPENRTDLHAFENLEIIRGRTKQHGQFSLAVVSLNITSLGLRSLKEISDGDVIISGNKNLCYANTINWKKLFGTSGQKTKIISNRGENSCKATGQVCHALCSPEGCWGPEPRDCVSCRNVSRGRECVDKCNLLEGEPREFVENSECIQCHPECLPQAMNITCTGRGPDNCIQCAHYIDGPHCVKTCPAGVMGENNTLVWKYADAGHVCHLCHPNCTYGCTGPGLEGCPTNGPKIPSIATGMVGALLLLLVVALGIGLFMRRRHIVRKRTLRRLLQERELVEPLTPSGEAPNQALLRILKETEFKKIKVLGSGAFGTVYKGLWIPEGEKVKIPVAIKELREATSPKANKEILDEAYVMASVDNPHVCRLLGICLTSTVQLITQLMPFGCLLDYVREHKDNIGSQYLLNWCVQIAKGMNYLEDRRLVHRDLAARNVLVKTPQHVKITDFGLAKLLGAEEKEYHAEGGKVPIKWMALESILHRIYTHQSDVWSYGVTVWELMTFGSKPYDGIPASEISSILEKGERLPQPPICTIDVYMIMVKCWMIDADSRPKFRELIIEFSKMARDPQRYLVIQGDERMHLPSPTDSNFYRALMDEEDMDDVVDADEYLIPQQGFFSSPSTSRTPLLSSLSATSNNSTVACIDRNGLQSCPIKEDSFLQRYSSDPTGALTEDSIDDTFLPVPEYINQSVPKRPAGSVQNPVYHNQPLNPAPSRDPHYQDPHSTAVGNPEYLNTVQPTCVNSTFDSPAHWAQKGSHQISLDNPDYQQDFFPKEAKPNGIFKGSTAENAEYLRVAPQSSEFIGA
pIC50: −log10 of the molar value.
Please note: 1 applies when pIC50 is 6 or greater, and 0 applies otherwise.

{"molecule": "CC(NC(=O)c1cc(NCc2cc(O)ccc2O)ccc1O)c1ccccc1 (stereo unspecified)", "classification": 1}
{"molecule": "Oc1ccc(O)c(CNc2cccc(C(O)c3ccccc3)c2)c1 (stereo unspecified)", "classification": 0}
{"molecule": "N#Cc1cc(NCc2cc(O)ccc2O)ccc1O", "classification": 1}
{"molecule": "CC(=O)c1cc(NCc2cc(O)ccc2O)ccc1O", "classification": 1}
{"molecule": "CC(CSCc1cc(NCc2cc(O)ccc2O)ccc1O)CC(C)(C)C (stereo unspecified)", "classification": 0}
{"molecule": "CC(C)c1ccc(NC(=O)c2cc(NCc3cc(O)ccc3O)ccc2O)cc1", "classification": 1}
{"molecule": "COc1ccc(NCc2cc(O)ccc2O)cc1COCC(C)CC(C)(C)C (stereo unspecified)", "classification": 0}

* * *

As a worked illustration, we turn to IC50 data collected for EGFR (UniProt P00533).
recorded.metric: IC50 (nM)

{"compound": "CC(C)(C)CC(C)(C)NC(=O)c1cc(NCc2cc(O)ccc2O)ccc1O", "recorded.metric": "IC50", "censoring.sign": "=", "experimental.result": 300}
{"compound": "O=C(NCc1ccccc1)c1cc(NCc2cc(O)ccc2O)ccc1O", "recorded.metric": "IC50", "censoring.sign": "=", "experimental.result": 40}
{"compound": "CC(COC(=O)c1cc(NCc2cc(O)ccc2O)ccc1O)CC(C)(C)C (centres undefined)", "recorded.metric": "IC50", "censoring.sign": "≥", "experimental.result": 10000}
{"compound": "O=C(Nc1ccccc1)c1cc(NCc2cc(O)ccc2O)ccc1O", "recorded.metric": "IC50", "censoring.sign": "=", "experimental.result": 90}

* * *

Biological target: EGFR (UniProt P00533)
pIC50: −log10 of the molar value.
// label = true (1) if pIC50 is not less than 6, otherwise false (0)

{"compound": "CC(COCc1cccc(NCc2cc(O)ccc2O)c1)CC(C)(C)C (stereo not drawn)", "classification": "false (0)"}
{"compound": "O=C(Cc1ccccc1)c1cc(NCc2cc(O)ccc2O)ccc1O", "classification": "true (1)"}
{"compound": "O=C(Cc1ccccc1)c1cccc(NCc2cc(O)ccc2O)c1O", "classification": "false (0)"}
{"compound": "O=C(Nc1ccccc1)c1cc(NCc2cc(O)ccc2O)ccc1O", "classification": "true (1)"}
{"compound": "CC(C)c1ccccc1NC(=O)c1cc(NCc2cc(O)ccc2O)ccc1O", "classification": "true (1)"}
{"compound": "CC(O)c1cccc(NCc2cc(O)ccc2O)c1 (stereo not drawn)", "classification": "false (0)"}
{"compound": "O=C(CCc1ccccc1)c1c(O)cccc1NCc1cc(O)ccc1O", "classification": "false (0)"}

* * *

Notes on IC50 obtained with EGFR (UniProt P00533).

{"chemical.smiles": "Oc1ccc(O)c(CNc2cccc(COCc3ccccc3)c2)c1", "target.system": "EGFR (UniProt P00533)", "IC50 [nM]": 950}
{"chemical.smiles": "Oc1ccc(O)c(CNc2ccc(O)c(COc3ccccc3)c2)c1", "target.system": "EGFR (UniProt P00533)", "IC50 [nM]": 700}
{"chemical.smiles": "CCCCCCCCCCCCCCCCC(=O)Oc1ccc(NCc2cc(O)ccc2O)cc1C(=O)NCc1ccccc1", "target.system": "EGFR (UniProt P00533)", "IC50 [nM]": 1500}
{"chemical.smiles": "O=C(c1ccccc1)c1cccc(NCc2cc(O)ccc2O)c1", "target.system": "EGFR (UniProt P00533)", "IC50 [nM]": 800}
